For each entry below, report its inhibition at 0.05 µM value.
ASSAY SYSTEM: human Smo (amino acids 181-787) (Homo sapiens)
Construct: expressed in transfected cells; membrane preparation
Sequence (Q99835 181-787): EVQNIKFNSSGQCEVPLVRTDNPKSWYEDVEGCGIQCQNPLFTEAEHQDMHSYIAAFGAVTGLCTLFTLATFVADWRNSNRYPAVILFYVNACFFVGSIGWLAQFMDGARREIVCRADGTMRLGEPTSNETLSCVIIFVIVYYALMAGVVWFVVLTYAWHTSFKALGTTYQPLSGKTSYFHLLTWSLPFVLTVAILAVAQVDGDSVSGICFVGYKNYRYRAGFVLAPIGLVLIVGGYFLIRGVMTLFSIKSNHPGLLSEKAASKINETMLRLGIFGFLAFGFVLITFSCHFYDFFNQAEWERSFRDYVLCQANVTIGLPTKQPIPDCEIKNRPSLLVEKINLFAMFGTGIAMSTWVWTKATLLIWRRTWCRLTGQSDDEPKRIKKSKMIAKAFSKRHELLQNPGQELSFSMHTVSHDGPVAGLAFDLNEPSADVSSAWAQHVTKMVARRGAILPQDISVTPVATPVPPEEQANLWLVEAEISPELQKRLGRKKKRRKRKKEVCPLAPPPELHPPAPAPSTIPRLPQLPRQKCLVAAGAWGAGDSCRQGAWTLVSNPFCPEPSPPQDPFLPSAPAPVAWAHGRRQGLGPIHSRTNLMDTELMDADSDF
ASSAY: Smo radioligand competition binding assay (displacement of 3H-PF-03451358 from HEK293 membranes)
CONDITION NOTES: 0.05 μM test compound; displacement of 3H-PF-03451358; read-out: SMO % inh. @ 0.05 μM
Give bare numbers, in %.

Consider the reported inhibition at 0.05 µM for these compounds:
>>> df
                                   compound          assay_readout  result_unit  meas_value
0  Cn1c(-c2cc(N3CCNCC3)ncc2Cl)nc2ccccc21 [Example A-23]  inhibition at 0.05 µM            %          88
1  CNC(=O)NC1CN(c2cc(-c3nc4ccccc4n3C)c(Cl)cn2)C1 [Example A-180]  inhibition at 0.05 µM            %          89

# map each compound to its inhibition at 0.05 µM
1. CC(=O)N1CCN(c2cc(-c3nc4ccccc4n3C)c(Cl)cn2)[C@@H](C)C1 [Example A-199]
2. CNC(=O)N1CCN(c2ccc(Cl)c(-c3nc4ccccc4n3C)n2)CC1 [Example B-3]
3. CN1CCN(C2COCCN(c3cc(-c4nc5ccccc5n4C)c(Cl)cn3)C2)CC1 (centres unmarked) [Example A-137]

Given back:
1. 100
2. 88
3. 45

The reported measurements were obtained from patent US20120157471A1.
